- assayNotes: xn = mol fraction of the nth substance listed, in the solute-free solvent
- testContext: 333.15 K; x2 = 0.3

compound | solubility (g/100 g solution)
O=C(O)c1ccc(C(=O)O)o1 + C1COCCO1 + O | 6.07
O=C(O)c1ccc(C(=O)O)o1 + O + COCCOCCOC | 3.71
O=C(O)c1ccc(C(=O)O)o1 + C1CCOC1 + O | 7.84
O=C(O)c1ccc(C(=O)O)o1 + O + COCCOC | 4.79

====

- assayNotes: xn = mol fraction of the nth substance listed, in the solute-free solvent
- testContext: 303.15 K; x2 = 0.9
Binary call on solubility (g/100 g solution): true from 4 upward, false beneath that.

compound | labelValue
O=C(O)c1ccc(C(=O)O)o1 + O + COCCOCCOC | false
COC1=CC(=O)CC(C)C12Oc1c(Cl)c(OC)cc(OC)c1C2=O (stereo not given) + CCC(C)=O + CC(C)O | false
O=C(O)c1ccc(C(=O)O)o1 + C1CCOC1 + O | false
CCCCOc1ccc(C(=O)CCN2CCCCC2)cc1.Cl + CCO + CCCCCC | true
CCCCOc1ccc(C(=O)CCN2CCCCC2)cc1.Cl + CCO + O | true

====

- assayNotes: xn = mol fraction of the nth substance listed, in the solute-free solvent
- testContext: 303.15 K; x2 = 0.4
// reported solubility (g/100 g solution) for each item listed

compound | solubility (g/100 g solution)
O=C1CCc2ccc(OCCCCN3CCN(c4cccc(Cl)c4Cl)CC3)cc2N1 + CCC(C)=O + CC(C)=O | 2.59
CCCCOc1ccc(C(=O)CCN2CCCCC2)cc1.Cl + CCO + CCOC(C)=O | 21.2
O=C(O)c1ccc(C(=O)O)o1 + O + COCCOC | 4.61
O=C1CCc2ccc(OCCCCN3CCN(c4cccc(Cl)c4Cl)CC3)cc2N1 + CCC(C)=O + CCCO | 3.77
CC(=O)OC(c1ccccc1)C(Cl)(Cl)Cl (stereo not drawn) + CC(C)O + O | 2.53
CC(=O)OC(c1ccccc1)C(Cl)(Cl)Cl (stereo not drawn) + CCO + O | 1.3
O=C(O)c1ccc(C(=O)O)o1 + O + COCCOCCOC | 4.05
COC1=CC(=O)CC(C)C12Oc1c(Cl)c(OC)cc(OC)c1C2=O (stereo not drawn) + CCC(C)=O + CC(C)O | 1.23

====

// reported solubility (g/100 g solution) for each item listed
- assayNotes: xn = mol fraction of the nth substance listed, in the solute-free solvent
- testContext: 288.15 K; x2 = 0.1
observedProperty: solubility (g/100 g solution)

molecule | endpointValue
O=C1CCc2ccc(OCCCCN3CCN(c4cccc(Cl)c4Cl)CC3)cc2N1 + CCC(C)=O + CCCO | 1.04
CCCCOc1ccc(C(=O)CCN2CCCCC2)cc1.Cl + CCO + CCOC(C)=O | 6.12
COC1=CC(=O)CC(C)C12Oc1c(Cl)c(OC)cc(OC)c1C2=O (stereo not given) + CCC(C)=O + CC(C)O | 0.217
COC1=CC(=O)CC(C)C12Oc1c(Cl)c(OC)cc(OC)c1C2=O (stereo not given) + CC(C)=O + CC(C)O | 0.236
O=C1CCc2ccc(OCCCCN3CCN(c4cccc(Cl)c4Cl)CC3)cc2N1 + CCC(C)=O + CCOC(C)=O | 0.882
CCCCOc1ccc(C(=O)CCN2CCCCC2)cc1.Cl + CO + C1CCOC1 | 4.97
CCCCOc1ccc(C(=O)CCN2CCCCC2)cc1.Cl + CCO + O | 41.1
COC1=CC(=O)CC(C)C12Oc1c(Cl)c(OC)cc(OC)c1C2=O (stereo not given) + CC(=O)CC(C)C + CC(C)O | 0.185
O=C1CCc2ccc(OCCCCN3CCN(c4cccc(Cl)c4Cl)CC3)cc2N1 + CCC(C)=O + CC(C)=O | 1.13
CCCCOc1ccc(C(=O)CCN2CCCCC2)cc1.Cl + CCO + CCCCCC | 3.35

====

- assayNotes: xn = mol fraction of the nth substance listed, in the solute-free solvent
- testContext: 333.15 K; x2 = 0.2

compound | solubility (g/100 g solution)
O=C(O)c1ccc(C(=O)O)o1 + O + COCCOCCOC | 2.68
O=C(O)c1ccc(C(=O)O)o1 + C1COCCO1 + O | 4.78
O=C(O)c1ccc(C(=O)O)o1 + O + COCCOC | 3.48
O=C(O)c1ccc(C(=O)O)o1 + C1CCOC1 + O | 6.11

====

- assayNotes: xn = mol fraction of the nth substance listed, in the solute-free solvent
- testContext: 298.15 K; x2 = 0.1
Binary call on solubility (g/100 g solution): label 1 from 2 upward, label 0 beneath that.

compound | labelValue
COC1=CC(=O)CC(C)C12Oc1c(Cl)c(OC)cc(OC)c1C2=O (stereo unspecified) + CC(C)=O + CC(C)O | label 0
O=C1CCc2ccc(OCCCCN3CCN(c4cccc(Cl)c4Cl)CC3)cc2N1 + CCC(C)=O + CCCO | label 0
O=C1CCc2ccc(OCCCCN3CCN(c4cccc(Cl)c4Cl)CC3)cc2N1 + CCC(C)=O + CC(C)=O | label 0
CCCCOc1ccc(C(=O)CCN2CCCCC2)cc1.Cl + CCO + CCOC(C)=O | label 1
COC1=CC(=O)CC(C)C12Oc1c(Cl)c(OC)cc(OC)c1C2=O (stereo unspecified) + CCC(C)=O + CC(C)O | label 0
CCCCOc1ccc(C(=O)CCN2CCCCC2)cc1.Cl + CCO + O | label 1
COC1=CC(=O)CC(C)C12Oc1c(Cl)c(OC)cc(OC)c1C2=O (stereo unspecified) + CC(=O)CC(C)C + CC(C)O | label 0
CCCCOc1ccc(C(=O)CCN2CCCCC2)cc1.Cl + CCO + CCCCCC | label 1
O=C1CCc2ccc(OCCCCN3CCN(c4cccc(Cl)c4Cl)CC3)cc2N1 + CCC(C)=O + CCOC(C)=O | label 0
O=C(O)c1ccc(C(=O)O)o1 + C1CCOC1 + O | label 0
CCCCOc1ccc(C(=O)CCN2CCCCC2)cc1.Cl + CO + C1CCOC1 | label 1

====

- assayNotes: xn = mol fraction of the nth substance listed, in the solute-free solvent
- testContext: 298.15 K; x2 = 0.5

compound | solubility (g/100 g solution)
COC1=CC(=O)CC(C)C12Oc1c(Cl)c(OC)cc(OC)c1C2=O (centres undefined) + CCC(C)=O + CC(C)O | 1.4
CC(=O)OC(c1ccccc1)C(Cl)(Cl)Cl (centres undefined) + CC(C)O + O | 2.68
O=C1CCc2ccc(OCCCCN3CCN(c4cccc(Cl)c4Cl)CC3)cc2N1 + CCC(C)=O + CCCO | 3.59
COC1=CC(=O)CC(C)C12Oc1c(Cl)c(OC)cc(OC)c1C2=O (centres undefined) + CC(C)=O + CC(C)O | 1.62

====

- assayNotes: xn = mol fraction of the nth substance listed, in the solute-free solvent
- testContext: 298.15 K; x2 = 0.3

molecule | solubility (g/100 g solution)
CCCCOc1ccc(C(=O)CCN2CCCCC2)cc1.Cl + CCO + O | 46.3
CCCCOc1ccc(C(=O)CCN2CCCCC2)cc1.Cl + CCO + CCOC(C)=O | 15.3
O=C1CCc2ccc(OCCCCN3CCN(c4cccc(Cl)c4Cl)CC3)cc2N1 + CCC(C)=O + CC(C)=O | 2.09
CC(=O)OC(c1ccccc1)C(Cl)(Cl)Cl (centres undefined) + CC(C)O + O | 0.695
O=C1CCc2ccc(OCCCCN3CCN(c4cccc(Cl)c4Cl)CC3)cc2N1 + CCC(C)=O + CCOC(C)=O | 1.48
CCCCOc1ccc(C(=O)CCN2CCCCC2)cc1.Cl + CCO + CCCCCC | 12
COC1=CC(=O)CC(C)C12Oc1c(Cl)c(OC)cc(OC)c1C2=O (centres undefined) + CCC(C)=O + CC(C)O | 0.821
COC1=CC(=O)CC(C)C12Oc1c(Cl)c(OC)cc(OC)c1C2=O (centres undefined) + CC(C)=O + CC(C)O | 0.871
COC1=CC(=O)CC(C)C12Oc1c(Cl)c(OC)cc(OC)c1C2=O (centres undefined) + CC(=O)CC(C)C + CC(C)O | 0.568

====

- assayNotes: xn = mol fraction of the nth substance listed, in the solute-free solvent
- testContext: 318.15 K; x2 = 0.3
Binary call on solubility (g/100 g solution): 1 from 4 upward, 0 beneath that.

compound | labelValue
O=C(O)c1ccc(C(=O)O)o1 + C1CCOC1 + O | 1
O=C(O)c1ccc(C(=O)O)o1 + O + COCCOC | 1
COC1=CC(=O)CC(C)C12Oc1c(Cl)c(OC)cc(OC)c1C2=O (stereo unspecified) + CC(C)=O + CC(C)O | 0
CCCCOc1ccc(C(=O)CCN2CCCCC2)cc1.Cl + CCO + O | 1
CCCCOc1ccc(C(=O)CCN2CCCCC2)cc1.Cl + CCO + CCCCCC | 1
COC1=CC(=O)CC(C)C12Oc1c(Cl)c(OC)cc(OC)c1C2=O (stereo unspecified) + CCC(C)=O + CC(C)O | 0
